Listing: Human VPAC2 Receptor: Alphascreen (EC50; nM) of selected binders
system.name: T1, human VPAC2 receptor (human, UniProt P41587 24-438)
T1 sequence (looked up): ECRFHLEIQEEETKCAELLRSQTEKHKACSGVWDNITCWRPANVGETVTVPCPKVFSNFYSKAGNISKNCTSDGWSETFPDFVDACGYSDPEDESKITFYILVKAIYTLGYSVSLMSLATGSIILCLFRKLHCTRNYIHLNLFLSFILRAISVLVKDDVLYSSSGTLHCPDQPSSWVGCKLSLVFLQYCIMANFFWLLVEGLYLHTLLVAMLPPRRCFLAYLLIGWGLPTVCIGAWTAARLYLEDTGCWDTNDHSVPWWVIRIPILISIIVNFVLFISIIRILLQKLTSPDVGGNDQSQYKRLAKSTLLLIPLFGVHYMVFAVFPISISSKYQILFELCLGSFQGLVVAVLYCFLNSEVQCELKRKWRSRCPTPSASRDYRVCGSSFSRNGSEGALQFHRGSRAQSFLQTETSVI
protocol.description: cell-based or functional assay
*1 amine or outer side, *2 acyl side, *3 side chain or, on linkers, in order; H or OH if unused. [ ]: non-standard residue; d: D form. Tyr(OMe) = methoxy tyrosine, COc1ccc(C[C@H](N[*:1])C(=O)[*:2])cc1; Orn = NCCC[C@H](N)C(=O)O; Abu = CC[C@H](N)C(=O)O; Aib = CC(C)(N)C(=O)O
quantity.measured: Human VPAC2 Receptor: Alphascreen (EC50; nM)

- HSDAVFTEQYTXLRXQLAAXXYXQXIXXGGPSSGAPPPCC (C6-HSDAVFTEQY(OMe)TOrnLRAibQLAAAibOrnYAibQAibIOrnOrnGGPSSGAPPPC(PEG20K)C(PEG20K)-NH2) [P519]: 30.3 nM
- HSDAVFTEQYTXLRXQVCAXXYLQSIXXGGPSSGAPPPS (C6-HSDAVFTEQY(OMe)TOrnLRAibQVC(PEG40K)AAibOrnYLQSIOrnOrnGGPSSGAPPPS-NH2) [P478]: 49.9 nM
- C6-HSDAVFTEQ[Tyr(OMe)]T[Orn]LRC(PEG 40 kDa)QLA[Abu][Aib][Orn]YLQ[Aib]I[Orn][Orn]GGPSSGAPPPS-NH2 [P547]: 62 nM
- HSDAVFTEQYTXLRXQLAXXXYLQSIXXGGPSSGAPPPCC (C6-HSDAVFTEQY(OMe)TOrnLRAibQLAAbuAibOrnY(OMe)LQSIOrnOrnGGPSSGAPPPC(PEG20K)C(PEG20K)-NH2) [P582]: 20.3 nM
- HSDAVFTEQYTXLRXQLAXXXYLQSIXCXGGPSSGAPPPC (C6-HSDAVFTEQY(OMe)TOrnLRAibQLAAbuAibOrnYLQSIOrnC(PEG20K)OrnGGPSSGAPPPC(PEG20K)-NH2) [P555]: 22.5 nM
- HSDAVFTEQYTXLRXQLAXXXYLQXIXXGGPSSGAPPPCC (C6-HSDAVFTEQY(OMe)TOrnLRAibQLAAbuAibOrnYLQAibIOrnOrnGGPSSGAPPPC(PEG30K)C(PEG30K)-NH2) [P570]: 13.4 nM
- HSDAVFTEQYTXLRXQXAAXXYLQSIXXGGPSSGAPPPS (C6-HSDAVFTEQY(OMe)TOrnLRAibQK(WPEG40K)AAAibOrnYLQSIOrnOrnGGPSSGAPPPS-NH2) [P533]: 2380 nM
- HSDAVFTEQYTXLRXQLAXXXYXQXIXXGGPSSGAPPPCC (C6-HSDAVFTEQY(OMe)TOrnLRAibQLAAbuAibOrnYAibQAibIOrnOrnGGPSSGAPPPC(PEG20K)C(PEG20K)-NH2) [P525]: 25 nM
- HSDAVFTEQYTXLRXQLAXXXYLQSIXCXGGPSSGAPPPS (C6-HSDAVFTEQY(OMe)TOrnLRAibQLAAbuAibOrnYLQSIOrnC(PEG40K)OrnGGPSSGAPPPS-NH2) [P539]: 10.7 nM
- HSDAVFTEQYTXLRXQLAXXXYLQSCXXGGPSSGAPPPS (C6-HSDAVFTEQY(OMe)TOrnLRAibQLAAbuAibOrnYLQSC(PEG40K)OrnOrnGGPSSGAPPPS-NH2) [P543]: 84.2 nM
- HSDAVFTEQYTXLRXQVAAXXYLXSIXXGGPSSGAPPPC (C6-HSDAVFTEQY(OMe)TOrnLRAibQVAAAibOrnYLK(CO(CH2)2SPEG20K)SIOrnOrnGGPSSGAPPPC(PEG20K)-NH2) [P490]: 116 nM
- HSDAVFTEQYTRXRXQLAAXXYLQSIKXXGGPSSGAPPPC (C6-HSDAVFTEQY(OMe)TRAibRAibQLAAAibOrnY(OMe)LQSIKAibOrnGGPSSGAPPPC(PEG40K)-NH2) [P417]: 14.7 nM
